Consider the following molecules and their measured IC25 growth inhibition readings.
- System: Clostridium bolteae
- TEST_SUMMARY: IC25 growth inhibition; higher = less potent;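 also: lowest concentration where monotonic median growth AUC falls below 0.75 of drug-free control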

Example molecules with recorded IC25 growth inhibition:
>  <MOLECULE>
C/C=C(/C(=C/C)c1ccc(O)cc1)c1ccc(O)cc1

>  <IC25 growth inhibition>
> 40 µM

$$$$
>  <MOLECULE>
CN(C)CCCN1c2ccccc2Sc2ccc(Cl)cc21

>  <IC25 growth inhibition>
≤ 160 µM

$$$$
>  <MOLECULE>
CCOC(=O)C1=C(C)NC(C)=C(C(=O)OCC)C1c1ccccc1/C=C/C(=O)OC(C)(C)C

>  <IC25 growth inhibition>
> 20 µM

$$$$
>  <MOLECULE>
C[C@@H](O[C@H]1OCCN(Cc2n[nH]c(=O)[nH]2)[C@H]1c1ccc(F)cc1)c1cc(C(F)(F)F)cc(C(F)(F)F)c1 [Aprepitant]

>  <IC25 growth inhibition>
> 160 µM

$$$$
>  <MOLECULE>
CCC(C)(C)C(=O)O[C@H]1C[C@@H](C)C=C2C=C[C@H](C)[C@H](CC[C@@H]3C[C@@H](O)CC(=O)O3)[C@H]21

>  <IC25 growth inhibition>
> 80 µM

$$$$
>  <MOLECULE>
CN(N=O)C(=O)N[C@@H](C=O)[C@@H](O)[C@H](O)[C@H](O)CO

>  <IC25 growth inhibition>
≤ 2.5 µM

$$$$

Quick one: give measured IC25 growth inhibition for CC(C)(O)c1ccccc1CC[C@@H](SCC1(CC(=O)O)CC1)c1cccc(/C=C/c2ccc3ccc(Cl)cc3n2)c1 > 40 µM

Quick one: give measured IC25 growth inhibition for CN[C@H]1CC[C@@H](c2ccc(Cl)c(Cl)c2)c2ccccc21 ≤ 160 µM

Quick one: give measured IC25 growth inhibition for Clc1ccc(COC(Cn2ccnc2)c2ccc(Cl)cc2Cl)c(Cl)c1 (stereo unspecified) ≤ 80 µM

Quick one: give measured IC25 growth inhibition for CC/C(=C(\c1ccccc1)c1ccc(OCCN(C)C)cc1)c1ccccc1 > 40 µM

Quick one: give measured IC25 growth inhibition for N=C(N)c1ccc(OCCCCCOc2ccc(C(=N)N)cc2)cc1 [Pentamidine Isothionate] > 160 µM

----------
Consider the following compounds and their measured IC25 growth inhibition readings.
- Tested on: Bacteroides thetaiotaomicron
- TEST_SUMMARY: IC25 growth inhibition; higher = less potent

>  <COMPOUND>
Cc1c(N(C)CS(=O)(=O)O)c(=O)n(-c2ccccc2)n1C [Metamizol]

>  <SYSTEM_NAME>
Bacteroides thetaiotaomicron

>  <REPORTED>
> 160 µM

$$$$
>  <COMPOUND>
CN[C@H](CC(C)C)C(=O)N[C@H]1C(=O)N[C@@H](CC(N)=O)C(=O)N[C@H]2C(=O)N[C@H]3C(=O)N[C@H](C(=O)N[C@H](C(=O)O)c4cc(O)cc(O)c4-c4cc3ccc4O)[C@H](O)c3ccc(c(Cl)c3)Oc3cc2cc(c3O[C@@H]2O[C@H](CO)[C@@H](O)[C@H](O)[C@H]2O[C@H]2C[C@](C)(N)[C@H](O)[C@H](C)O2)Oc2ccc(cc2Cl)[C@H]1O [Vancomycin]

>  <SYSTEM_NAME>
Bacteroides thetaiotaomicron

>  <REPORTED>
≤ 40 µM

$$$$
>  <COMPOUND>
COCCOC(=O)C1=C(C)NC(C)=C(C(=O)OC/C=C/c2ccccc2)C1c1cccc([N+](=O)[O-])c1 (stereo unspecified) [Cilnidipine]

>  <SYSTEM_NAME>
Bacteroides thetaiotaomicron

>  <REPORTED>
> 10 µM

$$$$
>  <COMPOUND>
CCCc1nc2c(C)cc(-c3nc4ccccc4n3C)cc2n1Cc1ccc(-c2ccccc2C(=O)O)cc1 [Telmisartan]

>  <SYSTEM_NAME>
Bacteroides thetaiotaomicron

>  <REPORTED>
> 160 µM

$$$$

Quick one: give measured IC25 growth inhibition for CN(C)CCCN1c2ccccc2Sc2ccc(Cl)cc21 [Chlorpromazine] ≤ 80 µM

Quick one: give measured IC25 growth inhibition for CCOC(=O)N1CCC(=C2c3ccc(Cl)cc3CCc3cccnc32)CC1 [Loratadine] > 160 µM

----------
Consider the following compounds and their measured IC25 growth inhibition readings.
- Tested on: Dorea formicigenerans
- TEST_SUMMARY: IC25 growth inhibition; higher = less potent

Example compounds with recorded IC25 growth inhibition:
>  <COMPOUND>
CN(C)CCCN1c2ccccc2Sc2ccc(Cl)cc21 [Chlorpromazine]

>  <IC25 growth inhibition>
≤ 40 µM

$$$$
>  <COMPOUND>
COc1ccc2[nH]c([S+]([O-])Cc3ncc(C)c(OC)c3C)nc2c1 (configuration not stated) [Omeprazole]

>  <IC25 growth inhibition>
> 160 µM

$$$$
>  <COMPOUND>
CN[C@H]1CC[C@@H](c2ccc(Cl)c(Cl)c2)c2ccccc21 [Sertraline]

>  <IC25 growth inhibition>
≤ 80 µM

$$$$
>  <COMPOUND>
OC(Cn1cncn1)(Cn1cncn1)c1ccc(F)cc1F [Fluconazole]

>  <IC25 growth inhibition>
> 160 µM

$$$$
>  <COMPOUND>
N[C@@H](Cc1cc(I)c(Oc2cc(I)c(O)c(I)c2)c(I)c1)C(=O)O [L-Thyroxin]

>  <IC25 growth inhibition>
≤ 80 µM

$$$$

Attention now shifts to the item below.
Quick one: give measured IC25 growth inhibition for CCn1cc(C(=O)O)c(=O)c2ccc(C)nc21 [Nalidixic Acid] > 160 µM

----------
- System: Streptococcus parasanguinis
- TEST_SUMMARY: IC25 growth inhibition; higher = less potent
Consider the following molecules and their measured IC25 growth inhibition readings.

Example molecules with recorded IC25 growth inhibition:
>  <MOLECULE>
CC(=O)Oc1cccc2c1C(=O)c1c(OC(C)=O)cc(C(=O)O)cc1C2=O

>  <SYSTEM_NAME>
Streptococcus parasanguinis

>  <REPORTED>
≤ 10 µM

$$$$
>  <MOLECULE>
CCc1oc2ccccc2c1C(=O)c1cc(Br)c(O)c(Br)c1

>  <SYSTEM_NAME>
Streptococcus parasanguinis

>  <REPORTED>
≤ 10 µM

$$$$
>  <MOLECULE>
Cc1c(N(C)CS(=O)(=O)O)c(=O)n(-c2ccccc2)n1C

>  <SYSTEM_NAME>
Streptococcus parasanguinis

>  <REPORTED>
> 160 µM

$$$$
>  <MOLECULE>
C[C@@H](O[C@H]1OCCN(Cc2n[nH]c(=O)[nH]2)[C@H]1c1ccc(F)cc1)c1cc(C(F)(F)F)cc(C(F)(F)F)c1 [Aprepitant]

>  <SYSTEM_NAME>
Streptococcus parasanguinis

>  <REPORTED>
> 160 µM

$$$$
>  <MOLECULE>
O=C1NCCN1CCN1CCC(c2cn(-c3ccc(F)cc3)c3ccc(Cl)cc23)CC1

>  <SYSTEM_NAME>
Streptococcus parasanguinis

>  <REPORTED>
≤ 80 µM

$$$$

Quick one: give measured IC25 growth inhibition for CC[C@H]1OC(=O)[C@H](C)[C@@H](O[C@H]2C[C@@](C)(OC)[C@@H](O)[C@H](C)O2)[C@H](C)[C@@H](O[C@@H]2O[C@H](C)C[C@H](N(C)C)[C@H]2O)[C@](C)(OC)C[C@@H](C)C(=O)[C@H](C)[C@@H](O)[C@]1(C)O < 1.25 µM

Quick one: give measured IC25 growth inhibition for CCN(CC)C(C)CN1c2ccccc2Sc2ccccc21 (stereo not given) > 80 µM

Quick one: give measured IC25 growth inhibition for Clc1ccc(Cn2c(CN3CCCC3)nc3ccccc32)cc1 > 160 µM

Quick one: give measured IC25 growth inhibition for CN(C)CC/C=C1/c2ccccc2Sc2ccc(Cl)cc21 > 160 µM

Quick one: give measured IC25 growth inhibition for CNCCCC1c2ccccc2C=Cc2ccccc21 > 160 µM

----------
- Tested on: Dorea formicigenerans
- TEST_SUMMARY: IC25 growth inhibition; higher = less potent
METRIC_NAME: IC25 growth inhibition

>  <MOLECULE>
O=C1CCc2ccc(OCCCCN3CCN(c4cccc(Cl)c4Cl)CC3)cc2N1

>  <METRIC_NAME>
IC25 growth inhibition

>  <REPORTED>
> 160 µM

$$$$
>  <MOLECULE>
CN(C)CC/C=C1/c2ccccc2Sc2ccc(Cl)cc21

>  <METRIC_NAME>
IC25 growth inhibition

>  <REPORTED>
≤ 40 µM

$$$$
>  <MOLECULE>
Cc1c(Cl)cccc1Nc1ccccc1C(=O)O

>  <METRIC_NAME>
IC25 growth inhibition

>  <REPORTED>
> 160 µM

$$$$
>  <MOLECULE>
CCCc1nc2c(C)cc(-c3nc4ccccc4n3C)cc2n1Cc1ccc(-c2ccccc2C(=O)O)cc1

>  <METRIC_NAME>
IC25 growth inhibition

>  <REPORTED>
> 80 µM

$$$$
>  <MOLECULE>
CN(C)C(=N)NC(=N)N

>  <METRIC_NAME>
IC25 growth inhibition

>  <REPORTED>
> 160 µM

$$$$

Attention now shifts to the item below.
Quick one: give measured IC25 growth inhibition for CC/C(=C(\c1ccccc1)c1ccc(OCCN(C)C)cc1)c1ccccc1 ≤ 20 µM
